// data source = patent US8420675B2

biological target: human CRTH2 (Homo sapiens, UniProt Q9Y5Y4); test: Human CRTH2 Receptor Binding Assay (whole cell, [3H]ramatroban competition); details: CHO-K1 cells expressing human CRTH2 and G-alpha16; 20 nM [3H]ramatroban; 1 hour, room temperature
pIC50: −log10 of the molar value.

compound	pIC50
O=C(O)Cn1ncc2c1CCCC2NS(=O)(=O)c1ccc(-c2ccccc2C(F)(F)F)cc1 (stereo not drawn) [Example 10-17a]	6.58
O=C(O)Cn1ncc2c1CCCC2NS(=O)(=O)c1ccc(Oc2ccc(Cl)cc2)cc1 (stereo not drawn) [Example 5-3a]	7.22
O=C(O)Cn1ncc2c1CCC[C@H]2NS(=O)(=O)c1ccc(Oc2ccccc2Cl)cc1 [Example 1-1a]	7.56
CC(C)c1cccc(-c2ccc(S(=O)(=O)N[C@@H]3CCCc4c3cnn4CC(=O)O)cc2)c1 [Example 10-27a]	8.29
CN([C@@H]1CCCc2c1cnn2CC(=O)O)S(=O)(=O)c1cnc(Oc2ccc(F)cc2Cl)c(Br)c1 [Example 6-6a]	8.17
CN([C@@H]1CCCc2c1cnn2CC(=O)O)S(=O)(=O)c1cnc(Oc2cc(Cl)ccc2Cl)c(Br)c1 [Example 6-5a]	8.31
COc1cc(Cl)ccc1Oc1ccc(S(=O)(=O)N(C)[C@@H]2CCCc3c2cnn3CC(=O)O)cc1Cl [Example 9-20a]	7.99
CN([C@@H]1CCCc2c1cnn2CC(=O)O)S(=O)(=O)c1ccc(Oc2ccc(C(C)(C)C)cc2)c(Cl)c1 [Example 9-7a]	7.90
COc1cccc(-c2ccc(S(=O)(=O)NC3CCCc4c3cnn4CC(=O)O)cc2)c1 (stereo not drawn) [Example 10-10a]	6.43
O=C(O)Cn1ncc2c1CCC[C@H]2NS(=O)(=O)c1ccc(Oc2ccccc2Cl)c(Cl)c1 [Example 5-1a]	7.84
CN([C@@H]1CCCc2c1cnn2CC(=O)O)S(=O)(=O)c1ccc(Oc2ccc(Cl)cc2)c(Cl)c1 [Example 9-3a]	7.95
CC(C)Oc1cccc(-c2ccc(S(=O)(=O)NC3CCCc4c3cnn4CC(=O)O)cc2)c1 (stereo not drawn) [Example 10-21a]	6.92
CN([C@@H]1CCCc2c1cnn2CC(=O)O)S(=O)(=O)c1cnc(Oc2ccc(Cl)cc2Cl)c(Br)c1 [Example 6-4a]	8.34
CC(C)c1ccc(Oc2ncc(S(=O)(=O)N(C)[C@@H]3CCCc4c3cnn4CC(=O)O)cc2Br)cc1 [Example 6-11a]	8.06
COc1ccc(-c2cccc(S(=O)(=O)NC3CCCc4c3cnn4CC(=O)O)c2)cc1 (stereo not drawn) [Example 10-5a]	6.43

----------
# pIC50 values compiled below
Target: human CRTH2 (Homo sapiens)
Sequence (Q9Y5Y4 1-395): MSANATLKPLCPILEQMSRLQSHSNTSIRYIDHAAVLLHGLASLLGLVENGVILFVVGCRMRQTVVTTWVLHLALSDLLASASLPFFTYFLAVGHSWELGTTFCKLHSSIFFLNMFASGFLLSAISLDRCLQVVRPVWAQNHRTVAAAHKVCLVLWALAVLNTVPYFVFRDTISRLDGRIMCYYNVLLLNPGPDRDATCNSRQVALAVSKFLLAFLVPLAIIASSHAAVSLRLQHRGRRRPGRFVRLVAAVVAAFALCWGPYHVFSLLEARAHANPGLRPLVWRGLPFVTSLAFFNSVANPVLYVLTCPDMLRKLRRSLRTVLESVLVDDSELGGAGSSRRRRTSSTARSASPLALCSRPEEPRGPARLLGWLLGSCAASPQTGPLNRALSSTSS
Test: Human CRTH2 Receptor Binding Assay (whole cell, [3H]ramatroban competition)
Conditions: CHO-K1 cells expressing human CRTH2 and G-alpha16; 20 nM [3H]ramatroban; 1 hour, room temperature
pIC50: −log10 of the molar value.

molecule	pIC50
CC(=O)Nc1ccc(Oc2ccc(S(=O)(=O)N(C)[C@@H]3CCCc4c3cnn4CC(=O)O)cc2Cl)cc1 [Example 9-27a]	7.31
O=C(O)Cn1ncc2c1CCCC2NS(=O)(=O)c1ccc(-c2ccccc2)c(C(F)(F)F)c1 (stereo not shown)	7.15
CN([C@@H]1CCCc2c1cnn2CC(=O)O)S(=O)(=O)c1ccc(Oc2ccc(Cl)cc2)c(C(F)(F)F)c1	8.09
Cc1ccc(S(=O)(=O)c2cc(C(F)(F)F)cc(S(=O)(=O)N(C)[C@@H]3CCCc4c3cnn4CCC(=O)O)c2)cc1	8.11
